Data origin: PubChem BioAssay (Tox21)

- Assay Target: Aryl hydrocarbon receptor (Homo sapiens)
- Assay Explanation: qHTS assay to identify small molecule that activate the aryl hydrocarbon receptor (AhR) signaling pathway (AID 743085); note: nearly all actives have a fitted effect of over 15% in size;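 for activation: HG2L7.5c1 human HepG2 liver cells with stably integrated DRE-driven firefly reporter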
- Condition Context: HepG2 AhR-luc (HG2L7.5c1), luciferase, 24 h; series mostly up to 70.3 µM
Records with an inconclusive call do not appear. Calls of active or inactive are those of the source. Calls come from the whole dose curve; as a rule, active = well fitted activation curve with a large enough effect in the repeat runs; inconclusive = weak or mixed curves; inactive = no such curve, though single readings can be large or run the other way.
Answer with one of the outcomes given here: t = active, f = inactive

Reference set, count: 5
CCC(Cl)CCC(Cl)C(Cl)CC(Cl)C(Cl)C(Cl)CCl (stereo not drawn) : f
Cc1cccc(Nc2ccccc2)c1 : f
CC(=O)OC[C@H]1O[C@@H](n2ncc(=O)[nH]c2=O)[C@H](OC(C)=O)[C@@H]1OC(C)=O : f
CC(C)(C)OCC1CO1 (stereo not drawn) : f
O=C(O)c1ccc(S(=O)(=O)O)cc1C(=O)O : f

Assay outcome for CC(CC=O)c1ccccc1 (stereo not drawn) : what was it?
f

// query: CN1C[C@H]2c3ccccc3Oc3ccc(Cl)cc3[C@@H]2C1
t

Repeat with CCCCCCCN
f

Entry to check: C=CC(=O)OCCOc1ccccc1
f

Likewise for CN(Cc1ccc(C(C)(C)C)cc1)Cc1cccc2ccccc12 ?
f

Now give it for COC(C)OC too.
f

Now this one: CN(C)c1ccc(C(c2ccccc2)c2ccc(N(C)C)cc2)cc1
f

Input O=C1OC(CN2CCOCC2)CN1/N=C/c1ccc([N+](=O)[O-])o1 (stereo not drawn)
f

C/C=C/C=C/CO ?
f

And the next one, CC(=O)c1ccc2c(c1)N(CCCN(C)C)c1ccccc1S2 ?
f

O=C(O)CC(=O)C(=O)O , same question.
f

Here is the next compound: NC(=O)C(c1ccccc1)(c1ccccc1)[C@@H]1CCN(CCc2ccc3c(c2)CCO3)C1
f

O=C(OCCCCCCOC(=O)c1ccccc1)c1ccccc1 ?
f

// query: CC(=O)c1cccc([N+](=O)[O-])c1
f

Record: N=c1ccn2c(n1)O[C@H]1[C@H](O)[C@@H](CO)O[C@H]12
f
